Target sequence: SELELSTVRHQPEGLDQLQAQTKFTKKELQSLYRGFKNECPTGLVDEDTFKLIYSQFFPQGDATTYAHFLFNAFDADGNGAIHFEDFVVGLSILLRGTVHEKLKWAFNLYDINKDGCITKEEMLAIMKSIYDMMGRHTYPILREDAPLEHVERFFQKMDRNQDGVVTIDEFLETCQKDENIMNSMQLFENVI
ENDPOINT NAME: Kd

Input "O=C(Nc1cc(C(F)(F)F)cc(C(F)(F)F)c1)Nc1c(Br)cc(Br)cc1-c1nn[nH]n1" . Output Kd: ~37 µM
